Listed next: entries and their corresponding Cysteine-bound compound.
Assay: Bioadhesion in liquid phase: binding to cysteine, assayed by HPLC
Settings: excess of cysteine (five or ten times molar compound concentration); 1 to 2 minutes; Ethanol-1×PBS pH 6.8 (pH 6.0 for compound #23)
Experimental: The compounds bio adhesion was carried out in solution, for the protein binding, and for the specific binding of sulfhydryl-reactive chemical groups of cysteine. […]
Test readout: Cysteine-bound compound (%)

Item smiles	Reported measurement
CCN(CC)c1ccc(C(=O)c2ccccc2C(=O)OCCOCCNC(=O)CCN2C(=O)C=CC2=O)c(O)c1	92
CC1(C)C2CCC1(CS(=O)(=O)NCCNC(=O)CCN1C(=O)C=CC1=O)C(=O)/C2=C\c1ccc(/C=C2\C(=O)C3(CS(=O)(=O)NCCNC(=O)CCN4C(=O)C=CC4=O)CCC2C3(C)C)cc1	100
N#CC(C(=O)OCCCCCCCCNC(=O)CCN1C(=O)C=CC1=O)=C(c1ccccc1)c1ccccc1	100
N#CC(C(=O)NCCNC(=O)CCN1C(=O)C=CC1=O)=C(c1ccccc1)c1ccccc1	99

---

test: Bioadhesion in liquid phase: binding to cysteine, assayed by HPLC; conditions: equimolar cysteine:compound solution (two molar equivalents for compounds with two maleimides); 1 to 2 minutes; Ethanol-1×PBS pH 6.8 (pH 6.0 for compound #23)
Output TRUE for records whose Cysteine-bound compound is lower than 80%, FALSE for records at or above 80%.

Item smiles	Group label
N#CC(C(=O)OCCCCCCCCNC(=O)CCN1C(=O)C=CC1=O)=C(c1ccccc1)c1ccccc1	FALSE
N#CC(C(=O)OCCS(=O)(=O)CCNC(=O)CCN1C(=O)C=CC1=O)=C(c1ccccc1)c1ccccc1	TRUE
CC1(C)C2CCC1(CS(=O)(=O)NCCNC(=O)CCN1C(=O)C=CC1=O)C(=O)/C2=C\c1ccc(/C=C2\C(=O)C3(CS(=O)(=O)NCCNC(=O)CCN4C(=O)C=CC4=O)CCC2C3(C)C)cc1	FALSE
N#CC(C(=O)NCCNC(=O)CCN1C(=O)C=CC1=O)=C(c1ccccc1)c1ccccc1	TRUE
CCN(CC)c1ccc(C(=O)c2ccccc2C(=O)OCCOCCNC(=O)CCN2C(=O)C=CC2=O)c(O)c1	TRUE

---

This section presents compounds with their documented λmax UV absorbance values.
assay: λmax UV absorbance in solution; format: physicochemical; settings: in ethanol/DMSO 9/1
Test readout: λmax UV absorbance (nm)

> print(dat)
                                   compound  reported.measurement
1  N#CC(C(=O)NCCNC(=O)CCN1C(=O)C=CC1=O)=C(c1ccccc1)c1ccccc1 [Compound #18]                   293
2  CCN(CC)c1ccc(C(=O)c2ccccc2C(=O)OCCOCCNC(=O)CCN2C(=O)C=CC2=O)c(O)c1 [Compound #16]                   357
3  CCCCCCOC(=O)c1ccccc1C(=O)c1ccc(N(CC)CC)cc1O [reference compound]                   357
4  CCCCC(CC)COC(=O)C(C#N)=C(c1ccccc1)c1ccccc1 (stereo not drawn) [Octocrylene, reference compound]                   305
5  N#CC(C(=O)OCCS(=O)(=O)CCNC(=O)CCN1C(=O)C=CC1=O)=C(c1ccccc1)c1ccccc1 [Compound #19]                   308
6  CCN(CC)c1ccc(C(=O)c2ccccc2C(=O)OCCNC(=O)CCN2C(=O)C=CC2=O)c(O)c1 [Compound #17]                   357

---

assay: Bioadhesion in liquid phase: binding to cysteine, assayed by HPLC; details: equimolar cysteine:compound solution (two molar equivalents for compounds with two maleimides); 1 to 2 minutes; Ethanol-1×PBS pH 6.8 (pH 6.0 for compound #23)
Is Free compound at least 20%? Then Criterion met. If not, Criterion not met.

Item smiles	Group label
N#CC(C(=O)OCCS(=O)(=O)CCNC(=O)CCN1C(=O)C=CC1=O)=C(c1ccccc1)c1ccccc1	Criterion met
N#CC(C(=O)NCCNC(=O)CCN1C(=O)C=CC1=O)=C(c1ccccc1)c1ccccc1	Criterion met
CCN(CC)c1ccc(C(=O)c2ccccc2C(=O)OCCNC(=O)CCN2C(=O)C=CC2=O)c(O)c1	Criterion met
CCN(CC)c1ccc(C(=O)c2ccccc2C(=O)OCCOCCNC(=O)CCN2C(=O)C=CC2=O)c(O)c1	Criterion met
CC1(C)C2CCC1(CS(=O)(=O)NCCNC(=O)CCN1C(=O)C=CC1=O)C(=O)/C2=C\c1ccc(/C=C2\C(=O)C3(CS(=O)(=O)NCCNC(=O)CCN4C(=O)C=CC4=O)CCC2C3(C)C)cc1	Criterion not met
N#CC(C(=O)OCCCCCCCCNC(=O)CCN1C(=O)C=CC1=O)=C(c1ccccc1)c1ccccc1	Criterion not met

---

experiment: Bioadhesion in liquid phase: binding to cysteine, assayed by HPLC; conditions: excess of cysteine (five or ten times molar compound concentration); 1 to 2 minutes; Ethanol-1×PBS pH 6.8 (pH 6.0 for compound #23)
As shown below, each of these molecules has a reported Free compound value.

Molecule	Free compound
CC1(C)C2CCC1(CS(=O)(=O)NCCNC(=O)CCN1C(=O)C=CC1=O)C(=O)/C2=C\c1ccc(/C=C2\C(=O)C3(CS(=O)(=O)NCCNC(=O)CCN4C(=O)C=CC4=O)CCC2C3(C)C)cc1 [Compound #20]	0%
N#CC(C(=O)NCCNC(=O)CCN1C(=O)C=CC1=O)=C(c1ccccc1)c1ccccc1 [Compound #18]	1%
CCN(CC)c1ccc(C(=O)c2ccccc2C(=O)OCCOCCNC(=O)CCN2C(=O)C=CC2=O)c(O)c1 [Compound #16]	8%
N#CC(C(=O)OCCCCCCCCNC(=O)CCN1C(=O)C=CC1=O)=C(c1ccccc1)c1ccccc1 [Compound #23]	0%
